FYI, the data here is from ChEMBL document CHEMBL2218924.

Target: cGMP-dependent protein kinase 1 (Homo sapiens)
Details: at 1 µM
// reported residual activity for each item listed
Provide only the numeric value, understood in %.

Param item = CN(C)S(=O)(=O)c1ccc2c(c1)/C(=C/c1cc3c([nH]1)CCCC3)C(=O)N2 ; retrieve measured residual activity.
99

Which value of residual activity has been reported for COc1cc2nccc(Oc3ccc(NC(=O)Nc4cc(C)on4)c(Cl)c3)c2cc1OC in the records?
101

Could you tell me which residual activity is on file for O=C1C(Cl)=C(N2C(=O)CCC2=O)C(=O)c2ccccc21 ?
95

Please give the measured residual activity for this compound: O=C(Nc1nc2ccccc2n1CCN1CCOCC1)c1cccc([N+](=O)[O-])c1
100

Value lookup for residual activity; key = CCCC(=O)Oc1ccc2[nH]c(C(=O)c3cc4ccccc4[nH]3)cc2c1
101

Need residual activity of O=S(=O)(NCCNC/C=C/c1ccc(Br)cc1)c1cccc2cnccc12 , thanks.
4

Query (compound): COc1cc2nccc(Oc3ccc(NC(=S)NC(=O)c4ccccc4C)cc3)c2cc1OC ; field requested: residual activity
97

Need residual activity of Nc1ncnc2[nH]nc(Nc3ccc(F)cc3)c12 , thanks.
100

For the compound shown here, CC(C)(C)c1nc2c3ccc(F)cc3c3c(=O)[nH]ccc3c2[nH]1 , give the reported residual activity.
45

Look up residual activity: O=C1Cc2c([nH]c3ccc(Br)cc23)-c2ccccc2N1
98

# get_value(readout='residual activity', item= CC(C)c1nn(-c2c(Cl)cccc2Cl)c2nc(Cc3ccc(OCCO)cc3)[nH]c(=O)c12 )
103

Any idea what residual activity was measured for Cc1cc(C)c(/C=C2\C(=O)Nc3ccccc32)[nH]1 ?
104

So what's the measured residual activity for this one? NC(=O)Nc1sc(-c2ccc(F)cc2)cc1C(N)=O
87

Fill in the blank: the reported residual activity of O=C(CCCc1ccc(-c2ccccc2F)cc1)Nc1ccc(O)cc1 is ____.
98

----------
Biological target: High affinity nerve growth factor receptor (Homo sapiens)
Settings: at 10 µM
Decision: residual activity >= 10% yields YES, all other cases yield NO.

For orientation, consider the following solved cases.
[
  {
    "molecule": "COc1ccc(COc2ccc(Cc3cnc(N)nc3N)cc2OC)cc1",
    "assigned_category": "NO"
  },
  {
    "molecule": "COc1cc2nccc(Oc3ccc(NC(=S)NC(=O)c4ccccc4C)cc3)c2cc1OC",
    "assigned_category": "NO"
  },
  {
    "molecule": "COc1ccc(Cl)cc1NC(=O)Nc1cc(C)nc2ccccc12",
    "assigned_category": "YES"
  },
  {
    "molecule": "Nc1ncnc2c1cnn2-c1ccccc1",
    "assigned_category": "YES"
  },
  {
    "molecule": "O=C1NC(=O)C(c2cn(CCCn3ccnc3)c3ccccc23)=C1Nc1ccccc1",
    "assigned_category": "NO"
  }
]

Item O=C1NC(=O)c2c1c1c3ccccc3[nH]c1n1cncc21 with residual activity of 10% or above?
NO

Is the recorded value of residual activity equal to or greater than 10% for this molecule? COc1cc2c(cc1OC)-c1n[nH]c(Nc3cccc(F)c3)c1C2
NO

hey, is residual activity for this one >= 10%? CCCCc1c(-c2ccc(O)cc2)[nH]c2nccnc12
YES

Threshold query (residual activity >= 10%) on O=C(c1ccccc1)c1ccc(N2CCOCC2)cc1O
YES

Record Cn1sc(=O)n(Cc2ccccc2)c1=O ; criterion: residual activity no lower than 10%. Met?
YES

Tell me whether residual activity is at least 10% here: O=C(NC(NC(=S)Nc1ccc(F)c([N+](=O)[O-])c1)C(Cl)(Cl)Cl)C(c1ccccc1)c1ccccc1 (stereo unspecified)
YES

----------
Each entry below carries its reported residual activity.
Biological target: Dual specificity protein kinase CLK3 (Homo sapiens) (UniProt P49761)
Sequence (P49761 whole entry, looked up): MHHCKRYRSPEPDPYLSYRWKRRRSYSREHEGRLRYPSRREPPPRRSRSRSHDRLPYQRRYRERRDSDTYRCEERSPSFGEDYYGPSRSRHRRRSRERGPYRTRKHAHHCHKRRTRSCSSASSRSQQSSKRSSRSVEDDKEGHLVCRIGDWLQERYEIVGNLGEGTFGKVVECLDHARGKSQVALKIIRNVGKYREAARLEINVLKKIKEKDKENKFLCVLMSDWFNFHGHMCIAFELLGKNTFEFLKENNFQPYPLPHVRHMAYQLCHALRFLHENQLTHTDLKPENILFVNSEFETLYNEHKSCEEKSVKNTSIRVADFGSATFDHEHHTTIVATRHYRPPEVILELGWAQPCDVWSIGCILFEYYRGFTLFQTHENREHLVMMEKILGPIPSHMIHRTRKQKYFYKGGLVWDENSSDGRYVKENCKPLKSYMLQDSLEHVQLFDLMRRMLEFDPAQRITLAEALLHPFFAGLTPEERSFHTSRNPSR
Conditions: at 10 µM
Answer with the value and then the unit.

A selection of reference data follows.
[
  {
    "molecule": "COc1cc2nccc(Oc3ccc(NC(=S)NC(=O)c4ccccc4C)cc3)c2cc1OC",
    "test_result": "46%"
  },
  {
    "molecule": "CC(C)(C)n1nc(Cc2cccc3ccccc23)c2c(N)ncnc21",
    "test_result": "32%"
  },
  {
    "molecule": "O=C(O)/C=C/c1cc(Br)c(Br)c(Br)c1Br",
    "test_result": "52%"
  },
  {
    "molecule": "Nc1nccc(-c2c(-c3ccc(F)cc3)ncn2C2CCNCC2)n1",
    "test_result": "68%"
  },
  {
    "molecule": "O=c1c(-c2ccc(F)cc2)c(-c2ccncc2)[nH]n1-c1ccc(Cl)cc1",
    "test_result": "81%"
  }
]

Field: residual activity (Dual specificity protein kinase CLK3 (Homo sapiens) (UniProt P49761)). Entry: CCN1/C(=C/C(C)=O)Sc2ccc(OC)cc21
40%

Param readout= residual activity; system= Dual specificity protein kinase CLK3 (Homo sapiens) (UniProt P49761); entry= O=C1NC(=O)C(c2c[nH]c3ccccc23)=C1c1c[nH]c2ccccc12 ; returns value.
29%

API: value(readout= residual activity, system= Dual specificity protein kinase CLK3 (Homo sapiens) (UniProt P49761), query= COc1cc2c(cc1OC)-c1n[nH]c(Nc3cccc(F)c3)c1C2 )
48%

Under Dual specificity protein kinase CLK3 (Homo sapiens) (UniProt P49761): residual activity value of CC(C)c1nn(-c2c(Cl)cccc2Cl)c2nc(Cc3ccc(OCCO)cc3)[nH]c(=O)c12 ?
59%

Please provide the recorded residual activity for O=C1NC(=O)C(c2cn(CCCO)c3ncccc23)=C1c1cnccn1 , tested on Dual specificity protein kinase CLK3 (Homo sapiens) (UniProt P49761).
78%

Notebook: pull reported residual activity for Dual specificity protein kinase CLK3 (Homo sapiens) (UniProt P49761), entry O=S(=O)(c1cccc2cnccc12)N1CCCNCC1
81%

Given the entry CSc1nc(-c2ccc(F)cc2)c(-c2ccnc(NC(C)c3ccccc3)c2)[nH]1 (stereo unspecified) , what residual activity was observed with Dual specificity protein kinase CLK3 (Homo sapiens) (UniProt P49761)?
86%

Please state recorded residual activity (tested on Dual specificity protein kinase CLK3 (Homo sapiens) (UniProt P49761)) of O=C1Cc2c([nH]c3ccc([N+](=O)[O-])cc23)-c2ccccc2N1
82%

Query the reported residual activity for Dual specificity protein kinase CLK3 (Homo sapiens) (UniProt P49761); item: O=C1Nc2ccc(Cl)cc2/C1=C/c1cc(Cl)c(O)c(Cl)c1
29%

Report residual activity for CCOC(=O)c1c(C)[nH]c(/C=C2\C(=O)Nc3ccccc32)c1C tested on Dual specificity protein kinase CLK3 (Homo sapiens) (UniProt P49761).
73%

Reported residual activity for Dual specificity protein kinase CLK3 (Homo sapiens) (UniProt P49761), given CN(C)S(=O)(=O)c1ccc2c(c1)/C(=C/c1cc3c([nH]1)CCCC3)C(=O)N2 ?
28%

----------
Biological target: Dual specificity protein kinase CLK3 (Homo sapiens) (UniProt P49761)
Conditions: at 1 µM
Entry flag: TRUE if residual activity reaches 80%; FALSE if it does not.

Past entries and their recorded results:
[
  {
    "compound": "O=C1C(Cl)=C(N2C(=O)CCC2=O)C(=O)c2ccccc21",
    "assigned_category": "TRUE"
  },
  {
    "compound": "CCN(CC)CCNC(=O)c1c(C)[nH]c(/C=C2\\C(=O)Nc3ccc(Cl)cc32)c1C",
    "assigned_category": "FALSE"
  },
  {
    "compound": "CC(C)c1nn(-c2c(Cl)cccc2Cl)c2nc(Cc3ccc(OCCO)cc3)[nH]c(=O)c12",
    "assigned_category": "FALSE"
  },
  {
    "compound": "CCN1/C(=C/C(C)=O)Sc2ccc(OC)cc21",
    "assigned_category": "FALSE"
  }
]

Please indicate if the recorded residual activity for N#C/C(=C1/Nc2ccccc2S1)c1ccnc(NCCc2cccnc2)n1 meets or exceeds 80%.
FALSE

Does the reported residual activity for CN(C)S(=O)(=O)c1ccc2c(c1)/C(=C/c1cc3c([nH]1)CCCC3)C(=O)N2 fall at or above the 80% mark?
FALSE

Hi, just wondering whether COc1ccc2c(c1)c(C1=C(c3c[nH]c4ccccc34)C(=O)NC1=O)cn2CCCN(C)C shows residual activity of 80% or higher.
FALSE

Please check the record CC(C)(C)c1nc2c3ccc(F)cc3c3c(=O)[nH]ccc3c2[nH]1 and state if its residual activity is at or above 80%.
FALSE

Check the entry COc1cc2c(cc1OC)-c1n[nH]c(Nc3cccc(F)c3)c1C2 : does residual activity equal or exceed 80%?
FALSE

----------
Target: Casein kinase I isoform delta (Homo sapiens)
Details: at 10 µM
Description: Millipore: Percentage of residual kinase activity of CSNK1D at 10uM relative to control. Control inhibitor: Jnk Inhibitor II at 100.0uM. Buffer: 8 mM MOPS pH 7.0, 0.2 mM EDTA
Reported residual activity values for a set of molecules
Your answer should be a plain number; it is taken to be in %.

Check out these entries, answers already filled in.
[
  {
    "chemical_string": "Cn1sc(=O)n(Cc2ccccc2)c1=O",
    "unit_info": "%",
    "residual activity": 84
  },
  {
    "chemical_string": "O=c1cc(N2CCNCC2)oc2c(-c3ccccc3)cccc12",
    "unit_info": "%",
    "residual activity": 85
  },
  {
    "chemical_string": "N#C/C(=C1/Nc2ccccc2S1)c1ccnc(NCCc2cccnc2)n1",
    "unit_info": "%",
    "residual activity": 8
  }
]

Enter reported residual activity observed with Casein kinase I isoform delta (Homo sapiens) for Nc1n[nH]c2nc3ccccc3nc12
34

Lab note: need residual activity for CCN1/C(=C/C(C)=O)Sc2ccc(OC)cc21 on Casein kinase I isoform delta (Homo sapiens), anyone have it?
4

What measured residual activity is associated with N#C/C(=C\c1ccc(O)c(O)c1)C(=O)NCc1ccccc1 on Casein kinase I isoform delta (Homo sapiens)?
87

What residual activity appears in the records for this molecule with Casein kinase I isoform delta (Homo sapiens)? O=C1C(Cl)=C(N2C(=O)CCC2=O)C(=O)c2ccccc21
85

Request: residual activity, test system Casein kinase I isoform delta (Homo sapiens), entry O=C(c1cc2cc(O)ccc2[nH]1)c1cc2cc(O)ccc2[nH]1
37
